assay: Intrinsic solubility of the compound in water; conditions: water
recorded.metric: solubility (µg/mL)
Answer with a number only, understood to be in µg/mL.

>  <compound>
C=CCN1CC[C@]23c4c5ccc(O)c4O[C@H]2C(=O)CC[C@@]3(O)[C@H]1C5

>  <number>
414

$$$$

Record request: solubility value, item c1ccc2[nH]c(-c3cscn3)nc2c1 66

Record request: solubility value, item Nc1ccc(Br)cc1C(=O)O 182

Record request: solubility value, item CN1C(C(=O)Nc2ccccn2)=C(O)c2ccccc2S1(=O)=O 5.2

###

experiment: Intrinsic solubility of the compound in water; settings: water
recorded.metric: log10 of solubility (log10 of the value in µg/mL)
All values: base-10 log of solubility in µg/mL.

Please review the entries below; each comes with its answer.
>  <compound>
CN(C)CCCN1c2ccccc2CCc2ccccc21

>  <log10 of solubility>
1.34

$$$$
>  <compound>
NCCc1c[nH]c2ccccc12

>  <log10 of solubility>
1.90

$$$$

Record request: log10 of solubility value, item Oc1ccc(I)cc1 3.63

Record request: log10 of solubility value, item CCCNC(=O)NS(=O)(=O)c1ccc(Cl)cc1 [CHLORPROPAMIDE] 2.19

Record request: log10 of solubility value, item CN1CCN(c2cc3c(cc2F)c(=O)c(C(=O)O)cn3-c2ccc(F)cc2)CC1 2.00

Record request: log10 of solubility value, item NC12CC3CC(CC(C3)C1)C2 3.33

Record request: log10 of solubility value, item CCN1CCN(c2cc3c(cc2F)c(=O)c(C(=O)O)cn3C2CC2)CC1 2.37
